# Test system: DeltatarO mutant
# test_description: S. aureus survival, RN4220 and DeltatarO strains – OD600, teichoic acid synthesis inhibitors, primary screen (AID 463173)
# condition_info: S. aureus RN4220 wild type/DeltatarO growth, OD600, 18 h, stronger effect = lower value, screened at 18.75 µg/mL (by protocol)
Among all 52,000 compounds or so, about 4,300 (8.3%) were called active. The sample as a whole holds a higher share of actives than the screen did.
measured_quantity: survival (%)
Could you give me the number in %? Just the number is fine.

Answered examples (5):
>>> test_result("O=C(Nc1ccc(N2CCOCC2)cc1)c1ncn[nH]1")
86
>>> test_result("COc1ccccc1C(=O)NCCn1cc(SCc2ccccc2Cl)c2ccccc21")
34
>>> test_result("COc1ccccc1C(=O)NCCn1cc(SCC(=O)Nc2ccccc2F)c2ccccc21")
55
>>> test_result("CCOc1ccc(NC(=O)c2oc3ccccc3c2NC(=O)c2cc(C)cc(C)c2)cc1")
82
>>> test_result("CCc1c(C)sc2c1CCN(C(=O)Nc1cc(Cl)c(OC)cc1OC)C2c1ccccc1 (stereo not given)")
63

Record lookup: for DeltatarO mutant, what survival belongs to COc1ccc(Nc2cc(C)c3cc(NC(=O)c4cc(OC)cc(OC)c4)ccc3n2)cc1 ? 94

Record lookup: for DeltatarO mutant, what survival belongs to COc1cccc(-n2c(=O)c3c(C)c(C)sc3n(CC(=O)NCCc3ccc(OC)c(OC)c3)c2=O)c1 ? 94

Record lookup: for DeltatarO mutant, what survival belongs to CCc1c(C)sc2c1CCN(C(=O)Nc1ccccc1C(=O)OC)C2c1ccc(F)cc1 (stereo not given) ? 105

Record lookup: for DeltatarO mutant, what survival belongs to Cc1ccc(C)c(NC(=O)CN2C(=O)c3cccnc3Oc3ccc(C)cc32)c1 ? 80

Record lookup: for DeltatarO mutant, what survival belongs to COc1ccc(OC)c(CNS(=O)(=O)c2ccc3[nH]c4c(c3c2)CCCCC4)c1 ? 79

Measured values drawn from PubChem BioAssay AID463173 for this set.
